- Test system: glycogen synthase kinase-3 (GSK3A per assay name; protocol says GSK3B)
- Method Notes: GSK3 binders on small-molecule microarrays, primary screen, biochemical, small-molecule microarray, 635 nm fluorescence, GSK3A (AID 1103); further: the record names both GSK3A and GSK3B
- Run Conditions: small-molecule microarray binding, fluorescence 635 nm; higher = more signal
Measured composite z-score, listed per entry.
Endpoint Label: composite z-score

{"columns": ["Substance Smiles", "Endpoint Label", "Measurement"],
 "data": [
  ["COC(=O)[C@]1(CO)N=C(c2ccc(OCCCO)cc2)O[C@@H]1c1ccccc1N=[N+]=[N-]", "composite z-score", 0.521],
  ["CO[C@H]([C@@H](C)[C@H](OC)c1ccccc1)[C@H](C)[C@@H](OC)[C@H](C)C(C)=O", "composite z-score", -0.641],
  ["CO[C@@H]1COC(=O)CCC[C@@H](C)[C@H](OC)COC(=O)CCC[C@H]1C", "composite z-score", 0.534],
  ["CC(CCN1CCc2nc(-c3ccccc3)c(-c3ccccc3)cc2C1)=NOC[C@@H](C)[C@H](OCc1ccccc1)C(C)C", "composite z-score", -1.52],
  ["CC(C)(C)N1C(=O)[C@H]2[C@H]3[C@H](O)[C@H](O)CC(=NO[C@@H]4O[C@H](CO)[C@@H](O)[C@H](O)[C@H]4O)[C@@H]3CC[C@H]2C1=O", "composite z-score", 0.869],
  ["COCCOC(=O)N1C(=O)[C@@]2(c3cc(C#CC4(O)CCCCCC4)ccc31)[C@H](C(=O)N1CCN(c3ncccn3)CC1)[C@H]1C(=O)O[C@H](c3ccccc3)[C@H](c3ccccc3)N1[C@@H]2c1ccc(OCCO)cc1", "composite z-score", 1.3],
  ["O=C1[C@H]2[C@H]3[C@H](O)[C@H](O)CC(=NOCc4ccccc4)[C@H]3CC[C@H]2C(=O)N1C[C@@H]1CCCO1", "composite z-score", 0.632]
]}

* * *

- Study Target: Streptavidin (Streptomyces avidinii) (UniProt P22629)
- Sequence (P22629 whole entry, looked up): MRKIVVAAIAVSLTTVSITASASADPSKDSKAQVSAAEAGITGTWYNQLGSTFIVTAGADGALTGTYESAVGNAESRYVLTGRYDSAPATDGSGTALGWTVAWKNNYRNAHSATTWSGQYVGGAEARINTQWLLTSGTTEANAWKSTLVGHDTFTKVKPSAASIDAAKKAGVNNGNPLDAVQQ
- Method Notes: streptavidin binders on small-molecule microarray, primary screen, artefact control for SMM compound annotation, biophysical, 635/667 nm fluorescence (AID 1147);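 further: signal reflects streptavidin binding to arrayed compounds as a control protein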
- Run Conditions: streptavidin binding, higher = more signal
Class class 1: composite z-score at least 0.4. Class class 0: composite z-score below 0.4.

{"columns": ["Compound", "Label Value"],
 "data": [
  ["COC(=O)[C@@]1(Cc2ccc(F)cc2)[C@@H]2C(=CC(=O)[C@H]2CC(=O)C(=O)N(C)C)CN1C(=O)c1ccccc1", "class 1"],
  ["COCCOC(=O)N1C(=O)[C@@]2(c3cc(C#CC4(O)CCCCCC4)ccc31)[C@H](C(=O)N1CCN(c3ncccn3)CC1)[C@H]1C(=O)O[C@H](c3ccccc3)[C@H](c3ccccc3)N1[C@@H]2c1ccc(OCCO)cc1", "class 1"],
  ["O=C1O[C@@H](c2ccccc2)[C@@H](c2ccccc2)N2[C@@H](c3ccc(OCCO)cc3)[C@]3(C(=O)Nc4ccccc43)[C@@H](C(=O)N3CCN(c4ncccn4)CC3)[C@H]12", "class 1"],
  ["C=CCOC(=O)[C@H]1[C@@H]2C(=O)O[C@@H](c3ccccc3)[C@@H](c3ccccc3)N2[C@@H](c2ccc(OCCOC(=O)[C@H]3C[C@H]4C(=O)N5CCC[C@H]5C(=O)N4[C@H]3c3cccc(OCCO)c3)cc2)[C@]12C(=O)Nc1ccc(I)cc12", "class 1"],
  ["COC(=O)[C@H](C)NC(=O)CCC1CC(OC(=O)NCc2cccc3ccccc23)CC2(CCCC(COC(=O)NCC3CCCCC3)O2)O1 (some centres not stated)", "class 1"],
  ["CC(=O)OC[C@H]1O[C@H](CC=NOC[C@@H](C)[C@H](OCc2ccccc2)C(C)C)C=C[C@@H]1OC(C)=O", "class 0"],
  ["COC(=O)[C@@H]1CC[C@H](C)[C@@H](c2ccc(C)cc2)N1C(=O)c1ccc(C=NOC(C)CN2CCCCc3nc(C)c(C)cc32)cc1 (some centres not stated)", "class 1"],
  ["CCOc1ccc(N2C(=O)/C(=C/C=C/c3ccccc3OC)S(=O)(=O)C2c2cccc([N+](=O)[O-])c2)cc1 (configuration not stated)", "class 0"],
  ["COCCOC(=O)N1C(=O)[C@@]2(c3cc(C#CCNC(N)=O)ccc31)[C@H](c1ccc(O)cc1)N1[C@H](c3ccccc3)[C@H](c3ccccc3)OC(=O)[C@H]1[C@@H]2C(=O)N1CCCCCCC1", "class 1"],
  ["CC[C@@H](c1ccccc1)n1c(=O)n2n(c1=O)[C@H]1[C@H](O)[C@@H]3O[C@@H]3C(=NOCC=C(C)CCC=C(C)C)[C@H]1CC2", "class 0"],
  ["COC(=O)[C@@]1(Cc2ccc(F)cc2)[C@H]2c3cc(C(=O)N(C)C)n(Cc4ccc(OC)c(OC)c4)c3C[C@H]2CN1C(=O)c1ccccc1", "class 0"],
  ["O=C1C[C@@H](O)[C@@H](O)[C@@H]2[C@@H]3C(=O)N(c4ccc(F)cc4F)C(=O)[C@@H]3CC[C@@H]12", "class 0"],
  ["O=C1[C@H]2[C@H]3[C@H](O)[C@H](O)CC(=NOC[C@@H](O)COCc4ccco4)[C@H]3CC[C@H]2C(=O)N1c1cccc(Oc2ccccc2)c1", "class 0"],
  ["COC(=O)[C@H]1COC(c2ccc(OCCCO)cc2)=N1", "class 0"],
  ["CCOC(=O)NN=C1C[C@@H](O)[C@@H](O)[C@@H]2[C@@H]3C(=O)N(C4CCCCC4)C(=O)[C@@H]3CC[C@@H]12", "class 0"],
  ["O=C1CCCC=C1C(O)CCOCc1ccccc1 (configuration not stated)", "class 1"],
  ["COc1ccc(O[C@H]2C=C[C@@H](c3ccccc3)O[C@@H]2CON=C[C@@H](C)[C@H](OCc2ccccc2)C(C)C)cc1", "class 0"],
  ["COc1ccc(OC[C@H]2Cc3c(-c4ccccc4)nc4c(c3CO2)CN(CCOc2ccccc2)CC4)cc1", "class 1"],
  ["CC(C)C[C@@H]1NC(=O)[C@H]2C[C@@H](C(=O)NCCCCCCN(C)C)[C@@H](c3cccc(OCCO)c3)N2C1=O", "class 0"],
  ["O=C1[C@H]2[C@H]3[C@H](O)[C@H](O)CC(=NOCc4ccccc4)[C@H]3CC[C@H]2C(=O)N1c1ccc(F)cc1F", "class 0"],
  ["CC(C)CON=C1C[C@@H](O)[C@@H](O)[C@@H]2[C@@H]3C(=O)N(C[C@@H]4CCCO4)C(=O)[C@@H]3CC[C@H]12", "class 0"],
  ["COCCCNC(=O)[C@@]1(CCS(=O)(=O)c2ccccc2)N=C(c2ccc(OCCCO)cc2)O[C@H]1c1ccccc1", "class 0"],
  ["O=C1C[C@@H](O)[C@@H](O)[C@@H]2[C@@H]3C(=O)N(C4CCCCC4)C(=O)[C@@H]3CC[C@H]12", "class 0"],
  ["Cc1cc2c(nc1C)CCCN2CC(C)ON=C1[C@H]2CCn3c(=O)n(-c4ccccc4)c(=O)n3[C@H]2[C@H](O)[C@@H]2O[C@H]12 (some centres not stated)", "class 0"],
  ["COc1ccc([Si](C)(C)[C@@H]2[C@@H](CC(=O)N3CCC[C@H]3CO)O[C@]3(C(=O)N(Cc4cccc(N5CCC5=O)c4)c4ccccc43)[C@H]2C)cc1", "class 1"],
  ["CC(C)[Si]1(C(C)C)O[C@@H](c2ccccc2)c2cc(C3CC3)nc(-c3ccccc3)c21", "class 0"],
  ["COc1ccc(-c2nc3c(c4c2C[C@H](C)OC4)CN(CCC(C)C)CC3)cc1", "class 0"]
]}
